Recorded CC50 for the following molecules
tested on: HOS cells; experiment: ATP based luciferase assay; assay type: cell-based, human; settings: read-out: CC50 ATP-lite; HOS cells

>  <Molecule>
O=C(CSc1ncccc1C(=O)O)c1ccc(O)c(O)c1

>  <CC50, µM>
160

$$$$
>  <Molecule>
O=C1S/C(=C\c2ccc(O)c(O)c2)C(=O)N1c1ccc(O)cc1

>  <CC50, µM>
14

$$$$
>  <Molecule>
Cc1c[nH]c2c1C(c1ccc(O)c(O)c1)C(C#N)=C(N)O2 (centres unmarked)

>  <CC50, µM>
44

$$$$
>  <Molecule>
O=C(O)CC1CC(=O)Oc2c1ccc(O)c2O (centres unmarked)

>  <CC50, µM>
67

$$$$
>  <Molecule>
O=C1NC(=Nc2ccccc2O)S/C1=C/c1ccc(O)c(O)c1

>  <CC50, µM>
14

$$$$
